Task for the reader: assign each of the following binders its reported Kd.
target: T1, hu-M-IL1RAP construct, positions S21-T367 (extracellular domain of the membrane form of human IL1RAP) (human, UniProt Q9NPH3 21-367)
T1 construct: Biotinylated when captured on the Biacore chip
T1 sequence: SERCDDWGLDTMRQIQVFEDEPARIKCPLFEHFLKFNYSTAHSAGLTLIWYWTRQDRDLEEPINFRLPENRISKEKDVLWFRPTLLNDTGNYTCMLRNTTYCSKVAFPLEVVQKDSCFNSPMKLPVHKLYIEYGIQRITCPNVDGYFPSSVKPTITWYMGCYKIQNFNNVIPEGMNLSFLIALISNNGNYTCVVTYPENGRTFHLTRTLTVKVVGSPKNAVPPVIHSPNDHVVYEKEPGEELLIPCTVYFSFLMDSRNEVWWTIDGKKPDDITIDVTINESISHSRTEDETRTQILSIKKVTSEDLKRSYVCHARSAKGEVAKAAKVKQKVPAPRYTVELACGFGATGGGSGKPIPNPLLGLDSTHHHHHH
procedureDetails: SPR, Fab analyte, 37 C
State just the number; it will be interpreted in nM.

Exercise: Which Kd is reported for this binder? K13 Fab (VL A51Y/W92I) (Fab, V domains shown, Fab with 8xHis tag) VH: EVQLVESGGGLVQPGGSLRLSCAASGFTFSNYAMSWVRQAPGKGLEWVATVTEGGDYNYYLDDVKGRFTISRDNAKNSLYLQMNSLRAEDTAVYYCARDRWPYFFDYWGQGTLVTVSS VL: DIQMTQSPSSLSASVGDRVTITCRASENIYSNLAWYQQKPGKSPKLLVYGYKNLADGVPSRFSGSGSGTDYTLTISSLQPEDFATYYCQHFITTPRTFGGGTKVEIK
Key: 0.0293

Exercise: // repeat for H7 Fab (VH F29E/N57G/R96A) (Fab, V domains shown, Fab with 8xHis tag) VH: EVQLVESGGGLVQPGGSLRLSCAASGFTESNYAMSWVRQAPGKGLEWVATVTEGGDYGYYLDDVKGRFTISRDNAKNSLYLQMNSLRAEDTAVYYCARDAWPYFFDYWGQGTLVTVSS VL: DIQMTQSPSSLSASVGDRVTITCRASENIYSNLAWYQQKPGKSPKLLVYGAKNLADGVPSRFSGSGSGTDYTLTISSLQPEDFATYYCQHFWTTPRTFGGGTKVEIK and report
Key: 0.0998

Exercise: Then this binder: H3 Fab (VH V51S) (Fab, V domains shown, Fab with 8xHis tag) VH: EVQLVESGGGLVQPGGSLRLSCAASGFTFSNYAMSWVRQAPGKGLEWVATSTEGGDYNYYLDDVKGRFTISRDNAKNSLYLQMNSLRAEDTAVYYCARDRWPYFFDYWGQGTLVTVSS VL: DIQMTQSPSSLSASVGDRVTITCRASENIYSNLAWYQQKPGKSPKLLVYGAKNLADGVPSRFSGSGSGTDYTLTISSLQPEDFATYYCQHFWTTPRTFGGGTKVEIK
Key: 0.125

Exercise: One more binder: H6 Fab (VH R96Q) (Fab, V domains shown, Fab with 8xHis tag) VH: EVQLVESGGGLVQPGGSLRLSCAASGFTFSNYAMSWVRQAPGKGLEWVATVTEGGDYNYYLDDVKGRFTISRDNAKNSLYLQMNSLRAEDTAVYYCARDQWPYFFDYWGQGTLVTVSS VL: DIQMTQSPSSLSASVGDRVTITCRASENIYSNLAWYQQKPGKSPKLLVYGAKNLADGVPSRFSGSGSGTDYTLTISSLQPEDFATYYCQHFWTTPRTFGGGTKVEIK
Key: 0.188
